Data provenance is ChEMBL document CHEMBL3997789.

# Tested on: Zika virus
# experiment: Potency index, ratio of chloroquine EC50 to test compound EC50 for Zika virus
# Type: functional

test smiles: COc1cccc(C=NCCNc2ccnc3cc(Cl)ccc23)c1O
tested system: Zika virus
Ratio EC50: 10
--
test smiles: O=[N+]([O-])c1ccc(C=NCCNc2ccnc3cc(Cl)ccc23)o1
tested system: Zika virus
Ratio EC50: 10
--
test smiles: O=[N+]([O-])c1ccc(C=NCCNc2ccnc3cc(Cl)ccc23)cc1
tested system: Zika virus
Ratio EC50: 10
--
test smiles: Clc1ccc2c(NCCN=Cc3ccncc3)ccnc2c1
tested system: Zika virus
Ratio EC50: 10
--
test smiles: O=[N+]([O-])c1ccc(C=NCCNc2ccnc3cc(Cl)ccc23)s1
tested system: Zika virus
Ratio EC50: 10
--
test smiles: COc1cccc(OC)c1C=NCCNc1ccnc2cc(Cl)ccc12
tested system: Zika virus
Ratio EC50: 10
--
test smiles: Fc1ccc(C=NCCNc2ccnc3cc(Cl)ccc23)cc1
tested system: Zika virus
Ratio EC50: 10
--
test smiles: Clc1ccc2c(NCCN=Cc3cccnc3)ccnc2c1
tested system: Zika virus
Ratio EC50: 5
--
test smiles: Clc1ccc2c(NCCN=Cc3ccccc3)ccnc2c1
tested system: Zika virus
Ratio EC50: 10

* * *

Listing: CC50 at 72 h of selected compounds
# experiment: Cytotoxicity against African green monkey Vero cells after 72 hrs by XTT assay
# Type: cell-based
# condition parameters: chlorocebus sabaeus
quantity: CC50 at 72 h (µM)

test smiles: Clc1ccc2c(NCCN=Cc3cccnc3)ccnc2c1
reading: 578

test smiles: O=[N+]([O-])c1ccc(C=NCCNc2ccnc3cc(Cl)ccc23)s1
reading: 478

test smiles: COc1cccc(OC)c1C=NCCNc1ccnc2cc(Cl)ccc12
reading: 458

test smiles: Fc1ccc(C=NCCNc2ccnc3cc(Cl)ccc23)cc1
reading: 534

test smiles: COc1cccc(C=NCCNc2ccnc3cc(Cl)ccc23)c1O
reading: 487

test smiles: O=[N+]([O-])c1ccc(C=NCCNc2ccnc3cc(Cl)ccc23)o1
reading: 412

test smiles: Clc1ccc2c(NCCN=Cc3ccncc3)ccnc2c1
reading: 571

test smiles: O=[N+]([O-])c1ccc(C=NCCNc2ccnc3cc(Cl)ccc23)cc1
reading: 512

test smiles: Clc1ccc2c(NCCN=Cc3ccccc3)ccnc2c1
reading: 489
